# Assay Notes: BSK_KF3CT_SRB: Viability Assessment in the BioMAP Diversity Plus: KF3CT Assay (AID 2283069);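 further: total protein by sulforhodamine B staining as a cytotoxicity measure; read 24 h after compound addition; fitted for both signal gain and loss against DMSO baseline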
# Measurement Setup: primary human keratinocytes with fibroblasts
Calls of active or inactive are those of the source. How the source made its calls: active means hit-call score of the fitted dose curve at least 0.9, where 1 is the maximum; inactive means score below 0.9.
Your reply should match one of these outcome classes. label 1 for active, label 0 for inactive

These recorded examples may help you get a feel for the data.
Compound | Discrete Label
O=P1(N(CCCl)CCCl)NCCCO1 (stereo unspecified) | label 0
CCOP(=S)(NC(C)C)Oc1ccccc1C(=O)OC(C)C (stereo unspecified) | label 0
CCOP(=S)(S)OCC | label 0
Cc1ccc(O)cc1C | label 0
c1ccc(OP(Oc2ccccc2)Oc2ccccc2)cc1 | label 0

Please let me know the test result on file for CCOC(=O)c1ccccc1C(=O)OCC . label 0
